// T/C lookup, one value per entry
System: L1210 leukemia ip in BDF1 mice, survival T/C
assay notes: NCI In Vivo Anticancer Drug Screen. Data for tumor model L1210 Leukemia (intraperitoneal) in B6D2F1 (BDF1) mice
condition context: endpoint: mean survival time; dose: 25.0 mg/kg/injection; schedule: Q04DX002 (ip); vehicle: Klucel (hydroxypropylcellulose) (HPC); higher = longer survival
Inconclusive results and toxic doses are left out.
property label: T/C

>>> recorded_measurement("Cc1ccc(C/C(Cc2ccccc2)=N/O)cc1")
"101 % of control"
>>> recorded_measurement("O=C(O)c1cccc(N2C(=O)CSC2=S)c1")
"94 % of control"
>>> recorded_measurement("CC(=O)N1Cc2ccc(C=O)n2Cc2cc3c(cc21)OCO3")
"96 % of control"
>>> recorded_measurement("O=C(O)c1ccc(S(=O)(=O)Cl)cc1")
"90 % of control"
>>> recorded_measurement("Oc1ccc(-c2cc3c(O)ccc(O)c3[nH]2)cc1O")
"86 % of control"
>>> recorded_measurement("CN(CCCl)CC1C(c2ccccc2)C1c1ccccc1 (centres undefined)")
"103 % of control"
>>> recorded_measurement("COc1cc(O)c2c(c1)Cc1cc(C)cc(O)c1C2=O")
"93 % of control"
>>> recorded_measurement("O=C(O)c1ccccc1Cl.[Ni]")
"94 % of control"
>>> recorded_measurement("ClCC1=NCCCN1")
"104 % of control"

---

Listed here: items and their measured T/C.
Tested on: L1210 leukemia ip in BDF1 mice, survival T/C
assay notes: NCI In Vivo Anticancer Drug Screen. Data for tumor model L1210 Leukemia (intraperitoneal) in B6D2F1 (BDF1) mice
condition context: endpoint: mean survival time; dose: 25.0 mg/kg/injection; schedule: Q04DX003 (ip); vehicle: Klucel (hydroxypropylcellulose) (HPC); higher = longer survival
Toxic doses and inconclusive results are not listed.
property label: T/C

>>> recorded_measurement("O=c1ccc([N+](=O)[O-])c[nH]1.[Ag]")
"99 % of control"
>>> recorded_measurement("C[As](=O)(O)c1ccc(N)cc1")
"95 % of control"
>>> recorded_measurement("CC(C)(Cc1ccc(F)cc1)NCc1ccccc1")
"101 % of control"
>>> recorded_measurement("N#CCCCOc1ccc(Cl)cc1")
"104 % of control"
>>> recorded_measurement("CNC(=S)N/N=C/c1ccccn1")
"112 % of control"
>>> recorded_measurement("CCOC(=O)C1(C(=O)OCC)C(C)CC(O)N1C(=O)c1ccccc1[N+](=O)[O-] (centres undefined)")
"100 % of control"
>>> recorded_measurement("CC(C)(O)C(C)(O)c1ccc(Cl)cc1 (centres undefined)")
"101 % of control"
>>> recorded_measurement("O/N=C1\\C(Cl)C2CC1C1C=CCC12 (centres undefined)")
"91 % of control"
>>> recorded_measurement("Cc1cccc(NC(=O)Nc2cccc3ccccc23)c1C")
"94 % of control"

---

Test system: L1210 leukemia ip in BDF1 mice, survival T/C
assay notes: NCI In Vivo Anticancer Drug Screen. Data for tumor model L1210 Leukemia (intraperitoneal) in B6D2F1 (BDF1) mice
condition context: endpoint: mean survival time; dose: 400.0 mg/kg/injection; schedule: Q04DX002 (ip); vehicle: saline; higher = longer survival
Inconclusive results and toxic doses are left out.
property label: T/C

>>> recorded_measurement("O=P1(N(CCCl)CCCl)NCCCO1 (centres undefined)")
"100 % of control"
>>> recorded_measurement("C/C=C/C=C/COC(=O)CCCCCCCCC")
"108 % of control"
>>> recorded_measurement("CCCCOC(=O)c1ccc(OC(=O)Nc2ccc(OC)cc2Cl)cc1")
"100 % of control"
>>> recorded_measurement("CCOC(=O)C1(O)c2ccccc2NC(=S)N1CC(Br)CBr (centres undefined)")
"103 % of control"
>>> recorded_measurement("Cc1ccc(C/C(Cc2ccccc2)=N/O)cc1")
"87 % of control"
>>> recorded_measurement("CN(C)c1ccc(/C=N/O)cc1")
"95 % of control"
>>> recorded_measurement("CC1=C(N)NN(O)C=C1")
"101 % of control"
>>> recorded_measurement("C=CCCCCCCCCC(=O)N/N=C/c1cccc(OC)c1OC")
"106 % of control"
>>> recorded_measurement("CCCCCCOC(=O)CCCc1ccc(N(CCCl)CCCl)cc1")
"124 % of control"
